# Test system: HCMV recombinant mutant virus (RV145)
# assay protocol: microbe, parasite or virus in culture
# Format: cell-based, human cytomegalovirus
# protocol conditions: HCMV
metric name: IC50 ug/ml HCMV

[[record]]
compound = "CN(C)c1cc(CCNC(=S)Nc2ccc(NC(=O)c3ccccc3F)cc2)cc(C(F)(F)F)c1 [Example 653]"
result = ">0.5 µg/mL"

[[record]]
compound = "COc1cc(OC)c(NC(=S)Nc2ccc(NC(=O)c3ccccc3N)cc2)cc1Cl [Example 181]"
result = ">10 µg/mL"

[[record]]
compound = "Nc1c(Cl)cccc1NC(=S)Nc1ccc(NC(=O)c2c(F)cccc2F)cc1 [Example 465]"
result = ">10 µg/mL"

[[record]]
compound = "COc1cc(OC)c(NC(=S)Nc2ccc(NC(=O)c3cccc(OCCN4CCOCC4)c3)cc2)cc1Cl [Example 258]"
result = "5 µg/mL"

[[record]]
compound = "COc1ccccc1C(=O)Nc1ccc(NC(=S)Nc2cc(Cl)c(OC)c(Cl)c2)cc1 [Example 873]"
result = "0.3 µg/mL"

[[record]]
compound = "O=C(Nc1ccc(NC(=S)NCCOc2cc(Cl)cc(Cl)c2)cc1)c1ccccc1F [Example 664]"
result = ">0.5 µg/mL"

[[record]]
compound = "O=C(Nc1ccc(NC(=S)NCc2ccc(Cl)c(Cl)c2)cc1)c1ccccc1F [Example 538]"
result = ">10 µg/mL"

[[record]]
compound = "COc1cc(OC)c(NC(=S)Nc2ccc(NC(=O)c3cc(F)ccc3F)cc2)cc1Cl [Example 187]"
result = ">10 µg/mL"

[[record]]
compound = "N#Cc1cccc(NC(=S)Nc2ccc(NC(=O)c3ccccc3F)cc2)c1 [Example 461]"
result = ">10 µg/mL"

[[record]]
compound = "COc1ccc(C(=O)Nc2ccc(NC(=S)NC(C)c3ccc(F)cc3)cc2)cc1 (stereo not drawn) [Example 754]"
result = ">10 µg/mL"

[[record]]
compound = "Cc1ccc(NC(=S)Nc2ccc(NC(=O)c3c(F)cccc3F)cc2)cc1Cl [Example 235]"
result = ">10 µg/mL"

[[record]]
compound = "COc1cc(OC)c(NC(=S)Nc2ccc(NC(=O)c3ccccc3)cc2)cc1Cl [Example 122]"
result = "4 µg/mL"

[[record]]
compound = "CC(NC(=S)Nc1ccc(NC(=O)c2ccccc2F)cc1)c1ccccc1Br (stereo not drawn) [Example 783]"
result = "1.1 µg/mL"

[[record]]
compound = "Cc1ccccc1C(C)NC(=S)Nc1ccc(NC(=O)c2ccccc2F)cc1 (stereo not drawn) [Example 775]"
result = "1 µg/mL"

[[record]]
compound = "COc1cccc(C(=O)Nc2ccc(NC(=S)Nc3ccc(C)c(Cl)c3)cc2)c1 [Example 232]"
result = ">10 µg/mL"

[[record]]
compound = "CSc1ccc(NC(=S)Nc2ccc(NC(=O)c3ccccc3F)cc2Cl)cc1Cl [Example 460]"
result = "2 µg/mL"

[[record]]
compound = "O=C(Nc1ccc(NC(=S)Nc2ccc3scnc3c2)cc1)c1ccccc1F [Example 484]"
result = ">10 µg/mL"

[[record]]
compound = "O=C(Nc1ccc(NC(=S)NCCOc2cccc(Cl)c2)cc1)c1ccccc1F [Example 666]"
result = ">0.5 µg/mL"

[[record]]
compound = "COc1cc(OC)c(NC(=S)Nc2ccc(NC(=O)c3ccc(F)c(F)c3F)cc2)cc1Cl [Example 192]"
result = ">10 µg/mL"

[[record]]
compound = "C[C@H](NC(=S)Nc1ccc(NC(=O)c2cc3ccccc3cn2)cc1)c1ccc(Br)cc1 [Example 1108]"
result = "2.3 µg/mL"

[[record]]
compound = "Nc1ccc(NC(=S)Nc2ccc(NC(=O)c3ccccc3F)cc2)cc1Cl [Example 404]"
result = "8 µg/mL"

[[record]]
compound = "CN(C)c1cc(CNC(=S)Nc2ccc(NC(=O)c3ccccc3F)cc2)cc(C(F)(F)F)c1 [Example 636]"
result = ">10 µg/mL"

[[record]]
compound = "O=C(Nc1ccc(NC(=S)Nc2cc(Br)cc(C(F)(F)F)c2)cc1)c1ccccc1F [Example 531]"
result = "5 µg/mL"

[[record]]
compound = "CCN(CC)CC(=O)Nc1ccc(NC(=S)Nc2ccc(NC(=O)c3ccccc3F)cc2)cc1Cl [Example 414]"
result = ">10 µg/mL"

[[record]]
compound = "CN(C)CC(=O)Nc1ccc(NC(=S)Nc2ccc(NC(=O)c3ccccc3F)cc2)cc1Cl [Example 362]"
result = ">10 µg/mL"

[[record]]
compound = "COc1cc(OC)c(NC(=S)Nc2ccc(NC(=O)c3cccc(OCCN(C)C)c3)cc2)cc1Cl [Example 257]"
result = "7 µg/mL"

[[record]]
compound = "Cc1ccccc1C(=O)Nc1ccc(NC(=S)Nc2ccc(N(C)C3CCCCC3)c(Cl)c2)cc1 [Example 247]"
result = ">10 µg/mL"

[[record]]
compound = "O=C(Nc1ccc(NC(=S)Nc2ccc(Cl)c(C(F)(F)F)c2)cc1)c1ccccc1F [Example 244]"
result = ">10 µg/mL"

[[record]]
compound = "CC(NC(=S)Nc1ccc(NC(=O)c2ccccc2F)cc1)c1ccc(Br)cc1 (stereo not drawn) [Example 1102]"
result = "1.7 µg/mL"

[[record]]
compound = "O=C(Nc1ccc(NC(=S)NCc2cccc(Cl)c2)cc1)c1ccccc1F [Example 511]"
result = ">10 µg/mL"

[[record]]
compound = "O=C(CN1CCCCC1)Nc1ccc(NC(=S)Nc2ccc(NC(=O)c3ccccc3F)cc2)cc1Cl [Example 364]"
result = ">10 µg/mL"

[[record]]
compound = "COc1cc(C)c(Cl)cc1NC(=S)Nc1ccc(NC(=O)c2c(F)cccc2F)cc1 [Example 333]"
result = "2.5 µg/mL"

[[record]]
compound = "Cc1ccccc1C(=O)Nc1ccc(NC(=S)Nc2ccc(N(C)C3CCN(C)CC3)c(Cl)c2)cc1 [Example 375]"
result = "1.5 µg/mL"

